B1: TMEM192 (parent)
chain: ILGKVILWILHLLLECYIQYHHSK

variants of: B1; test: protein stability index of a GFP-peptide fusion (GPS, HEK-293T) (PSI 1-6); higher = more stable; settings: c terminus: a fixed tail appended;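 further: lentivirally expressed fusions sorted by FACS into six bins by GFP to DsRed ratio, PSI derived from sequencing read proportions per bin multiplied by bin number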
In this section we review reported protein stability index values for a set of variants.
Reply with just the number.

INPUT: Looking for the measured protein stability index of Q19E , can you help?
OUTPUT: 3.03

The measured values listed here are drawn from the supplement of paper PMC10567573.
